Consider the following molecules; for each one, report its microsomal CLint at 1 μM.
# experimentSummary: in vitro
# Type: in vitro ADME
# setupConditions: rat, microsomes, pH 7.4
Include the unit after the number when you answer.

Fill in the blank: the reported microsomal CLint at 1 μM of `Cc1cc(/C=C/C#N)cc(C)c1Oc1cc(Nc2ccc(C#N)cc2)c(N)cc1C(N)=O` is ____. 57 µL/min/mg

Could you do the same for `Cc1cc(/C=C/C#N)cc(C)c1Nc1ccnc(Nc2ccc(C#N)cc2)n1` , please? 57 µL/min/mg

Could you do the same for `Cc1cc(/C=C/C#N)cc(C)c1Oc1cc(Nc2ccc(C#N)cc2)c(N)cc1[N+](=O)[O-]` , please? 50 µL/min/mg

====

# experimentSummary: Microsomal stability assay, human liver microsomes
# Type: in vitro ADME
# setupConditions: pH 7.4
Consider the following compounds; for each one, report its microsomal CLint at 1 μM.
Give the value in µL/min/mg but do not write µL/min/mg after it.

Fill in the blank: the reported microsomal CLint at 1 μM of Cc1cc(/C=C/C#N)cc(C)c1Oc1cc(Nc2ccc(C#N)cc2)c(N)cc1[N+](=O)[O-] [Compound 3] is ____. 150

Could you do the same for Cc1cc(/C=C/C#N)cc(C)c1Oc1cc(Nc2ccc(C#N)cc2)c(N)cc1C(N)=O [Compound 9c] , please? 200

Could you do the same for Cc1cc(/C=C/C#N)cc(C)c1Oc1cc(Nc2ccc(C#N)cc2)c(N)cc1CO [Compound 9e] , please? 230

Could you do the same for Cc1cc(/C=C/C#N)cc(C)c1Nc1ccnc(Nc2ccc(C#N)cc2)n1 [Compound 2, rilpivirine] , please? 200
